Reference for the values: patent US20150368338A1

The binders listed here are annotated with their pKd.
# TESTED ON: T1, human IFN-ω (human, UniProt P05000 24-195)
# T1 construct: also called interferon omega
# TEST: ProteOn, one antigen concentration
Note on pKd: it is the negative log10 of concentration, concentration in mol/L.

Examples with their reported pKd follow.
Would you kindly share the measured pKd for IFWM3336 (antibody, V domains shown, VH IFWH591, VL IFWL1085; converted mAb; also called IFWB3071) VH: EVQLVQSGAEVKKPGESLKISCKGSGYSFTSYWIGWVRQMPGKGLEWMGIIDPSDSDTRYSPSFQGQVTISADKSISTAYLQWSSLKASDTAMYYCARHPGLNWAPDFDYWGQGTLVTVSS VL: DIQMTQSPSSLSASVGDRVTITCRASQSIRNNYLNWYQQKPGKAPKLLIYAASSLQSGVPSRFSGSGSGTDFTLTISSLQPEDFATYYCQQGYDTPLTFGQGTKVEIK ?
10.72

Would you kindly share the measured pKd for IFWM3356 (antibody, V domains shown, VH IFWH624, VL IFWL1026; converted mAb; also called IFWB3091) VH: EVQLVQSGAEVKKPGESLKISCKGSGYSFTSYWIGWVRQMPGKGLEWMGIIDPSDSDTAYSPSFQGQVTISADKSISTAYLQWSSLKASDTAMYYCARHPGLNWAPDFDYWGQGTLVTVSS VL: DIQMTQSPSSLSASVGDRVTITCRASQSISKFLNWYQQKPGKAPKLLIYFASSLQSGVPSRFSGSGSGTDFTLTISSLQPEDFATYYCQQSYDFPITFGQGTKVEIK ?
9.56

Moving on to another binder below.
Would you kindly share the measured pKd for IFWM3345 (antibody, V domains shown, VH IFWH624, VL IFWL1000; converted mAb; also called IFWB3080) VH: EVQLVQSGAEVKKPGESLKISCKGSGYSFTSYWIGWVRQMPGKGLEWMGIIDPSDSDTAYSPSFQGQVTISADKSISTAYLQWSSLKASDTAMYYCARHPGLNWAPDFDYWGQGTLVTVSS VL: DIQMTQSPSSLSASVGDRVTITCRASQSITNFLNWYQQKPGKAPKLLIYFASSLQSGVPSRFSGSGSGTDFTLTISSLQPEDFATYYCQQSLDFPLTFGQGTKVEIK ?
11.40
